Test system: nutsedge, yellow (yellow nutsedge, Cyperus esculentus)
Assay: Test C pre-/postemergence: nutsedge, yellow
Assay type: in vivo
Conditions: Postemergence, 250 g ai/ha; scale 0 to 100
Source text: […] Treated plants and controls were maintained in a greenhouse for 13 to 15 days, after which time all species were compared to controls and visually evaluated. […]
value kind: Plant response rating, Nutsedge, Yellow

>  <smiles str>
Fc1ccc(-n2nc(Cc3ccnc(C(F)(F)F)c3)c(OCC(F)(F)F)n2)cc1

>  <reported>
20

$$$$
>  <smiles str>
Cc1nn(-c2ccc(F)cc2)nc1Cc1ccnc(C(F)(F)F)c1

>  <reported>
0

$$$$
>  <smiles str>
Cc1nn(-c2ccc(F)c(F)c2)nc1Oc1ccnc(C(F)(F)F)c1

>  <reported>
15

$$$$
>  <smiles str>
Cc1nn(-c2ccc(C(F)(F)F)c(F)c2)nc1Cc1ccnc(C(F)(F)F)c1

>  <reported>
10

$$$$
